Data provenance: PubChem BioAssay (NCI)

Listed compounds paired with reported GI50
# Test system: A549 NSCLC
# protocol-summary: NCI tumour cell line growth inhibition, 48 h

compound: O=C(CCCSc1nc(-c2ccc(Cl)cc2)cc(-c2ccc(Cl)cc2)n1)NO
GI50: 1590 nM
--
compound: C[C@]12CC[C@@H]3c4ccc(O)cc4C[C@@H](CCCCCCCCCS(=O)CCCC(F)(F)C(F)(F)F)[C@H]3[C@@H]1CC[C@@H]2O (stereo partly drawn)
GI50: > 69900 nM
--
compound: CCCCCCCCCCC(O)C1CCC(C2CCC(C(O)CCCCC(O)CCCCCC(O)CC3=CC(C)OC3=O)O2)O1 (stereo not drawn)
GI50: 1930 nM

###

# System: NCI-H460 lung
# protocol-summary: NCI tumour cell line growth inhibition, 48 h

line-notation: CNC(=O)N1CCN(C(=O)NC)CCN(C(=O)NC)CC1
TGI: > 100 µM

line-notation: COc1ccc(-c2nc(-c3nc4ccc(C)cc4[nH]3)c3ccccn23)cc1
TGI: 6.11 µM

line-notation: O=C1SCC(O)=C1/C=N/Nc1nc2ccccc2o1
TGI: > 100 µM

line-notation: c1ccc2c(c1)nc1n2CNCC1
TGI: > 100 µM

line-notation: N#Cc1nc(COCCOCc2ccccc2)oc1N
TGI: > 100 µM

line-notation: CCCCCCCCCCCCCCCCCc1cccc(OCOCCOC)c1CO
TGI: > 100 µM

###

# System: SNB-19 CNS
# protocol-summary: NCI tumour cell line growth inhibition, 48 h

molecule: CCCCC/C=C/C/C=C/CCCCCCCC1=NC(C)(C)CN1C(C)C
TGI: 3 µM

molecule: Cc1ccc(C(=O)/C=C/c2ccccc2O)c(C)c1
TGI: > 100 µM

molecule: C[C@]12CC[C@@H]3c4ccc(O)cc4CC[C@H]3[C@@H]1CC[C@@H]2NS(=O)(=O)c1ccc(C(F)(F)F)cc1
TGI: 11.6 µM

molecule: O=C(CC(=O)N1N=C(c2ccccc2)C(N=Nc2ccc(Cl)cc2)C1=O)Nc1ccccc1Cl (stereo not given)
TGI: 61 µM

molecule: COc1ccc(OC)c(/C=C/NC=O)c1
TGI: > 100 µM

molecule: CC(=O)O[C@@H]1C=C(C)[C@H](CBr)O[C@@]2(C)CC[C@H](Br)C(C)(C)[C@H]12
TGI: > 100 µM

molecule: CC1=CC(=O)NCCN1C
TGI: > 100 µM

molecule: COc1cc([N+](=O)[O-])ccc1NC(=O)C(F)(F)F
TGI: > 100 µM

molecule: COc1cc2c(/C=C3/C(=O)Nc4cccc(Cl)c43)c(Cl)n(Cc3ccccc3)c2cc1C
TGI: > 100 µM

molecule: C=C1C(=O)O[C@H]2[C@H]1CC/C(COC(=O)/C=C\C(=O)NCc1ccc(Cn3c(=O)sn(-c4ccc(C#N)cc4)c3=O)cc1)=C\CC[C@@]1(C)O[C@@H]21
TGI: 2.27 µM

molecule: Cc1oc2nc(N(C)C)nc(Cl)c2c1C
TGI: > 100 µM

molecule: CC(C)=[CH][Sb]([Br])([CH]=C(C)C)([CH]=C(C)C)[CH]=C(C)C
TGI: 89.4 µM

molecule: COc1cc(Cc2cc(OC)c(OC)c(OC)c2)ccc1O
TGI: > 100 µM

molecule: CC1CN=C(Nc2ccc(S(N)(=O)=O)cc2)S1 (stereo not given)
TGI: > 100 µM

molecule: COc1ccc(-c2cc3c(nn2)-c2ccccc2C3=O)cc1
TGI: > 100 µM

molecule: CC(C)(C)OC(=O)N(CCCN(CCn1c2c(c3ccccc3c1=O)C(=O)c1ccccc1-2)C(=O)OC(C)(C)C)CCn1c2c(c3ccccc3c1=O)C(=O)c1ccccc1-2
TGI: > 50 µM

molecule: Nc1nccc(-c2c(-c3ccc(F)cc3)ncn2CCCN2CCOCC2)n1
TGI: > 25 µM

molecule: Oc1cc(O)c2c(c1)O[C@H](c1cc(O)c(O)c(O)c1)[C@H](O)C2
TGI: > 100 µM

molecule: N#CCCN(c1ccc(/C=C2\N=C(c3ccc(Cl)cc3)OC2=O)cc1)S(=O)(=O)c1ccccc1
TGI: > 100 µM

molecule: Cc1cc(O)c(/C=N/C(=S)NCCc2ccccc2)c(=O)o1
TGI: > 100 µM

###

Reported TGI values for the following compounds.
# System: NCI-H522 lung
# protocol-summary: NCI tumour cell line growth inhibition, 48 h
readout-kind: TGI

compound: CC(C(=O)O)c1cnn(-c2ccccc2)c1-n1cccc1 (centres undefined)
readout-kind: TGI
result: > 100 µM

compound: CCC1c2[nH]c3ccccc3c2C[C@H]2C(=O)NC(CCC(=O)OC(C)(C)C)C(=O)N12 (some centres undefined)
readout-kind: TGI
result: > 100 µM

compound: c1ccc2c(c1)nc1n2CNCC1
readout-kind: TGI
result: > 100 µM

compound: C=C1C(=O)O[C@H]2[C@H]1CC/C(COC(=O)/C=C\C(=O)NCc1ccc(Cn3c(=O)sn(-c4ccc(C#N)cc4)c3=O)cc1)=C\CC[C@@]1(C)O[C@@H]21
readout-kind: TGI
result: 1.65 µM

compound: COc1cc(C2c3cc4c(cc3[C@@H](Nc3ccccc3)C3CO[C@@H](OC)[C@H]23)OCO4)cc(OC)c1O (some centres undefined)
readout-kind: TGI
result: > 25 µM

compound: CC12CCCC(CC(=O)c3[nH]c4ccccc4c31)C2 (centres undefined)
readout-kind: TGI
result: 5.29 µM

compound: CC(C)CSc1nc(Nc2ccccc2)c(C#N)c(-c2ccc(F)cc2)n1
readout-kind: TGI
result: 71.4 µM

compound: O=C(NCCCNC(=O)c1ccc2cc(O)c(O)cc2c1)c1ccc2cc(O)c(O)cc2c1
readout-kind: TGI
result: > 100 µM

compound: N#CCCN(CCC#N)c1ccc(/C=C2\N=C(CN3C(=O)c4ccccc4C3=O)OC2=O)cc1
readout-kind: TGI
result: > 100 µM

###

// values below are reported TGI
# System: CCRF-CEM leukemia
# protocol-summary: NCI tumour cell line growth inhibition, 48 h

compound: C[N+](C)(N)CCC[N+](C)(C)N
measured-target: CCRF-CEM leukemia
TGI: > 100 µM
--
compound: CC12CCCC(CC(=O)c3[nH]c4ccccc4c31)C2 (stereo not drawn)
measured-target: CCRF-CEM leukemia
TGI: > 100 µM
--
compound: CN(CCCNc1ccc2ncn3c4ccccc4c(=O)c1c23)CCCN1C(=O)c2cccc3cc([N+](=O)[O-])cc(c23)C1=O
measured-target: CCRF-CEM leukemia
TGI: 0.973 µM
--
compound: Cn1cc(C2=C(c3cn(CCCN=C(N)N)c4ccccc34)C(=O)NC2=O)c2ccccc21
measured-target: CCRF-CEM leukemia
TGI: > 25 µM
--
compound: COc1ccc(C(=O)/C=C/c2cccnc2Nc2cc(OC)c(OC)c(OC)c2)cc1
measured-target: CCRF-CEM leukemia
TGI: 6.15 µM
--
compound: O=C(CNc1ccc(Cl)cc1)Nn1c(-c2ccccc2)nc2ccccc2c1=O
measured-target: CCRF-CEM leukemia
TGI: 9.48 µM
--
compound: CC[C@@H]1/C=C/C=C/C[C@H](C)[C@@H](O)[C@](C)(O)C(=O)[C@H](C)[C@@H](O)[C@H](C)C(=O)[C@H](C)[C@@H](O)[C@H](C)/C=C/C(=O)O[C@H]2[C@@H](C)[C@@H](CC1)O[C@]1(O[C@H](CC(C)O)[C@H](C)CC1=O)[C@@H]2C (stereo partly drawn)
measured-target: CCRF-CEM leukemia
TGI: > 16 µM
--
compound: CCC(C)(O)c1cn(-c2cccc(S(=O)(=O)O)c2)nn1 (stereo not drawn)
measured-target: CCRF-CEM leukemia
TGI: > 100 µM

###

# Test system: COLO 205 colon
# protocol-summary: NCI tumour cell line growth inhibition, 48 h

molecule: CCCN=C(NC(=O)c1ccc(Cl)cc1)SC
rel: >
TGI (µM): 100
//
molecule: CCCCCCCCCCCCCCCCOP(=O)(O)Oc1ccc(/C=C\c2ccc(OP(=O)(O)OCCCCCCCCCCCCCCCC)cc2)cc1
rel: =
TGI (µM): 33.6
//
molecule: Cc1nnc([C@@]2(C)CC[C@H]3[C@@H](CC=C4C[C@@H](O)CC[C@@]43C)[C@@H]2CC#N)o1
rel: >
TGI (µM): 100
//
molecule: O=C1c2ccccc2S[C@@H](O)[C@@H]2CCCN12
rel: >
TGI (µM): 100
//
molecule: CCCCNC(=O)NS(=O)(=O)c1ccc(N2N=C(c3ccc(C)cc3C)CC2c2ccc(N(C)C)cc2)cc1 (stereo unspecified)
rel: =
TGI (µM): 7.56
//
molecule: C/C(=N\NC(=S)N1CC2CCC(CC2)C1)c1ccncn1
rel: <
TGI (µM): 0.0333
//
molecule: O=[N+]([O-])C(C(Cl)=C(Cl)Cl)=C(N1CCOCC1)N1CCOCC1
rel: >
TGI (µM): 100
//
molecule: O=C(/C=C/c1ccccc1Cl)c1ccccc1Cl
rel: =
TGI (µM): 44.8
//
molecule: COc1cc(C(=O)O[C@H](C(N)=O)[C@]2(C)CO2)c2ccccc2c1
rel: =
TGI (µM): 39.7
//
molecule: O=C(c1ccccc1)c1c2ccccn2c2cccc[n+]12
rel: >
TGI (µM): 100
//
molecule: Cn1cc(-c2csc(-c3cccc(F)c3)n2)c2cccnc21
rel: =
TGI (µM): 30.1
